System: E. faecalis ATCC29212
Test: microbe, parasite or virus in culture
Conditions: ATCC29212
Protocol: The MICs of test agents were measured using a modified broth micro-dilution method in Difco Mueller Hinton medium, on a panel of bacterial pathogens that were both susceptible and resistant to common antibiotics (S1 File). Briefly, serial dilutions were performed in 0.01% acetic acid containing 0.2% bovine serum albumin at 10-fold the desired final concentration. […]
Square brackets hold non-standard residues; d marks the D form. Peptide text beside a SMILES is read from it. Nspe = C[C@H](NCC(=O)O)c1ccccc1; Nlys = NCCCCNCC(=O)O
recorded.metric: MIC (µg/mL)
Please state the figure in µg/mL; there is no need to write the unit.

Incoming: Entry C[C@@H](c1ccccc1)N(CC(N)=O)C(=O)CN(C(=O)CN(CCCCN)C(=O)[C@@H]1CCCN1C(=O)CN(C(=O)CN(CCCCN)C(=O)CN(C(=O)CN(C(=O)CN(CCCCN)C(=O)CN(C(=O)CN(C(=O)CNCCCCN)[C@@H](C)c1ccccc1)[C@@H](C)c1ccccc1)[C@@H](C)c1ccccc1)[C@@H](C)c1ccccc1)[C@@H](C)c1ccccc1)[C@@H](C)c1ccccc1 [Peptoid 1-Pro9] (H-[Nlys][Nspe][Nspe][Nlys][Nspe][Nspe][Nlys][Nspe]P[Nlys][Nspe][Nspe]-NH2) : reported MIC = ?
Outgoing: 16

---

Parameter: MIC. Scope: all listed entries.
Tested on: E. cloacae 218R Class C β-lactamase
Assay: microbe, parasite or virus in culture
Details: 218R Class C β-lactamase
Square brackets hold non-standard residues; d marks the D form. Peptide text beside a SMILES is read from it. Nspe = C[C@H](NCC(=O)O)c1ccccc1; Nphe = O=C(O)CNCc1ccccc1; Nlys = NCCCCNCC(=O)O
Remember to follow the number with its unit.

A selection of reference data follows.
compound	target.desc	MIC
C[C@@H](c1ccccc1)N(CC(N)=O)C(=O)CN(C(=O)CN(CCCCN)C(=O)[C@@H]1CCCN1C(=O)CN(C(=O)CN(CCCCN)C(=O)CN(C(=O)CN(C(=O)CN(CCCCN)C(=O)CN(C(=O)CN(C(=O)CNCCCCN)[C@@H](C)c1ccccc1)[C@@H](C)c1ccccc1)[C@@H](C)c1ccccc1)[C@@H](C)c1ccccc1)[C@@H](C)c1ccccc1)[C@@H](C)c1ccccc1 [Peptoid 1-Pro9] (H-[Nlys][Nspe][Nspe][Nlys][Nspe][Nspe][Nlys][Nspe]P[Nlys][Nspe][Nspe]-NH2)	E. cloacae 218R Class C β-lactamase	32 µg/mL
C[C@@H](c1ccccc1)N(CC(N)=O)C(=O)CN(Cc1ccccc1)C(=O)CN(CCCCN)C(=O)CN(C(=O)CN(Cc1ccccc1)C(=O)CN(CCCCN)C(=O)CN(C(=O)CN(Cc1ccccc1)C(=O)CN(CCCCN)C(=O)CN(C(=O)CN(Cc1ccccc1)C(=O)CNCCCCN)[C@@H](C)c1ccccc1)[C@@H](C)c1ccccc1)[C@@H](C)c1ccccc1 [1-Npm2,5,8,11, H-(NLys-Npm-Nspe)4-NH2] (H-[Nlys][Nphe][Nspe][Nlys][Nphe][Nspe][Nlys][Nphe][Nspe][Nlys][Nphe][Nspe]-NH2)	E. cloacae 218R Class C β-lactamase	8 µg/mL
CC(C)[C@H](C)N(CC(N)=O)C(=O)CN(C(=O)CN(CCCCN)C(=O)CN(C(=O)CN(C(=O)CN(CCCCN)C(=O)CN(C(=O)CN(C(=O)CN(CCCCN)C(=O)CN(C(=O)CN(C(=O)CNCCCCN)[C@@H](C)C(C)C)[C@@H](C)C(C)C)[C@@H](C)C(C)C)[C@@H](C)C(C)C)[C@@H](C)C(C)C)[C@@H](C)C(C)C)[C@@H](C)C(C)C	E. cloacae 218R Class C β-lactamase	32 µg/mL
C[C@@H](c1ccccc1)N(CC(=O)N(CC(=O)N(CCCCN)CC(=O)N(CC(=O)N(CC(=O)N(CCCCN)CC(=O)N(CC(=O)N(CC(=O)N(CCCCN)CC(=O)N(CC(=O)N(CC(N)=O)Cc1ccccc1)Cc1ccccc1)Cc1ccccc1)Cc1ccccc1)Cc1ccccc1)Cc1ccccc1)Cc1ccccc1)C(=O)CNCCCCN [Peptoid 1ach-Nspe2, H-(NLys-Nspe-Npm)- (NLys-Npm-Npm)3-NH2] (H-[Nlys][Nspe][Nphe][Nlys][Nphe][Nphe][Nlys][Nphe][Nphe][Nlys][Nphe][Nphe]-NH2)	E. cloacae 218R Class C β-lactamase	16 µg/mL
C[C@@H](c1ccccc1)N(CC(N)=O)C(=O)CN(C(=O)CN(CCCCN)C(=O)CN(C(=O)CN(C(=O)CN(CCCCN)C(=O)CN(C(=O)CN(C(=O)CN(CCCCN)C(=O)[C@@H]1CCCN1C(=O)CN(C(=O)CNCCCCN)[C@@H](C)c1ccccc1)[C@@H](C)c1ccccc1)[C@@H](C)c1ccccc1)[C@@H](C)c1ccccc1)[C@@H](C)c1ccccc1)[C@@H](C)c1ccccc1 [Peptoid 1-Pro3, H-NLys-Nspe-L-Pro-(NLys-Nspe-Nspe)3-NH2] (H-[Nlys][Nspe]P[Nlys][Nspe][Nspe][Nlys][Nspe][Nspe][Nlys][Nspe][Nspe]-NH2)	E. cloacae 218R Class C β-lactamase	16 µg/mL
C[C@@H](c1ccccc1)N(CC(N)=O)C(=O)CN(Cc1ccccc1)C(=O)CN(CCCCN)C(=O)CN(Cc1ccccc1)C(=O)CN(Cc1ccccc1)C(=O)CN(CCCCN)C(=O)CN(Cc1ccccc1)C(=O)CN(Cc1ccccc1)C(=O)CN(CCCCN)C(=O)CN(Cc1ccccc1)C(=O)CN(Cc1ccccc1)C(=O)CNCCCCN	E. cloacae 218R Class C β-lactamase	16 µg/mL
C[C@@H](c1ccccc1)N(CC(N)=O)C(=O)CN(C(=O)CN(CCCCN)C(=O)CN(C(=O)CN(C(=O)CN(CCCCN)C(=O)[C@@H]1CCCN1C(=O)CN(C(=O)CN(CCCCN)C(=O)CN(C(=O)CN(C(=O)CNCCCCN)[C@@H](C)c1ccccc1)[C@@H](C)c1ccccc1)[C@@H](C)c1ccccc1)[C@@H](C)c1ccccc1)[C@@H](C)c1ccccc1)[C@@H](C)c1ccccc1 [Peptoid 1-Pro6] (H-[Nlys][Nspe][Nspe][Nlys][Nspe]P[Nlys][Nspe][Nspe][Nlys][Nspe][Nspe]-NH2)	E. cloacae 218R Class C β-lactamase	16 µg/mL
C[C@@H](c1ccccc1)N(CC(N)=O)C(=O)CN(C(=O)CN(CCCCN)C(=O)CN(Cc1ccccc1)C(=O)CN(Cc1ccccc1)C(=O)CN(CCCCN)C(=O)CN(C(=O)CN(C(=O)CN(CCCCN)C(=O)CN(Cc1ccccc1)C(=O)CN(Cc1ccccc1)C(=O)CNCCCCN)[C@@H](C)c1ccccc1)[C@@H](C)c1ccccc1)[C@@H](C)c1ccccc1	E. cloacae 218R Class C β-lactamase	8 µg/mL

Incoming: Please tell me: MIC of C[C@H](NCC(=O)N(CCCCN)CC(=O)N(CC(=O)N(CCCCN)CC(=O)N(CCCCN)CC(=O)N(CC(=O)N(CC(=O)N(CCCCN)CC(=O)N(CC(=O)N(CCCCN)CC(=O)N(CCCCN)CC(=O)N(CC(N)=O)[C@@H](C)c1ccccc1)[C@@H](C)c1ccccc1)[C@@H](C)c1ccccc1)[C@@H](C)c1ccccc1)[C@@H](C)c1ccccc1)c1ccccc1 [1B-NLys4,10, H-(Nspe-NLys-Nspe-NLys-NLys-Nspe)2-NH2] (H-[Nspe][Nlys][Nspe][Nlys][Nlys][Nspe][Nspe][Nlys][Nspe][Nlys][Nlys][Nspe]-NH2) , system E. cloacae 218R Class C β-lactamase?
Outgoing: 32 µg/mL

Incoming: Short answer please: MIC, E. cloacae 218R Class C β-lactamase, entry C[C@H](NCC(=O)N(CC(=O)N(CCCCN)CC(=O)N(CC(=O)N(CCCCN)CC(=O)N(CC(=O)N(CCCCN)CC(=O)N(CC(=O)N(CC(=O)N(CC(=O)N(CC(=O)N(CCCCN)CC(N)=O)[C@@H](C)c1ccccc1)[C@@H](C)c1ccccc1)[C@@H](C)c1ccccc1)[C@@H](C)c1ccccc1)[C@@H](C)c1ccccc1)[C@@H](C)c1ccccc1)[C@@H](C)c1ccccc1)c1ccccc1 [Peptoid 1scr, H-(Nspe)2-(NLys-Nspe)3-(Nspe)3-NLys-NH2] (H-[Nspe][Nspe][Nlys][Nspe][Nlys][Nspe][Nlys][Nspe][Nspe][Nspe][Nspe][Nlys]-NH2)
Outgoing: 32 µg/mL

---

Test system: P. aeruginosa H1030 (MDR)
Assay: microbe, parasite or virus in culture
Conditions: P. aeruginosa H1030 (MDR)
Square brackets hold non-standard residues; d marks the D form. Peptide text beside a SMILES is read from it. Nspe = C[C@H](NCC(=O)O)c1ccccc1; Nlys = NCCCCNCC(=O)O
recorded.metric: MIC (µg/mL)
Output spec: scalar in µg/mL, unitless text.

molecule	measured.value
C[C@H](NCC(=O)N(CC(=O)N(CCCCN)CC(=O)N(CC(=O)N(CCCCN)CC(=O)N(CC(=O)N(CCCCN)CC(=O)N(CC(=O)N(CC(=O)N(CC(=O)N(CC(=O)N(CCCCN)CC(N)=O)[C@@H](C)c1ccccc1)[C@@H](C)c1ccccc1)[C@@H](C)c1ccccc1)[C@@H](C)c1ccccc1)[C@@H](C)c1ccccc1)[C@@H](C)c1ccccc1)[C@@H](C)c1ccccc1)c1ccccc1 [Peptoid 1scr, H-(Nspe)2-(NLys-Nspe)3-(Nspe)3-NLys-NH2] (H-[Nspe][Nspe][Nlys][Nspe][Nlys][Nspe][Nlys][Nspe][Nspe][Nspe][Nspe][Nlys]-NH2)	64
C[C@@H](c1ccccc1)N(CC(N)=O)C(=O)CN(C(=O)CN(CCCCN)C(=O)CN(C(=O)CN(C(=O)CN(CCCCN)C(=O)[C@@H]1CCCN1C(=O)CN(C(=O)CN(CCCCN)C(=O)CN(C(=O)CN(C(=O)CNCCCCN)[C@@H](C)c1ccccc1)[C@@H](C)c1ccccc1)[C@@H](C)c1ccccc1)[C@@H](C)c1ccccc1)[C@@H](C)c1ccccc1)[C@@H](C)c1ccccc1 [Peptoid 1-Pro6] (H-[Nlys][Nspe][Nspe][Nlys][Nspe]P[Nlys][Nspe][Nspe][Nlys][Nspe][Nspe]-NH2)	16

Now look at this one.
Incoming: Fill in the recorded MIC for this molecule, with P. aeruginosa H1030 (MDR) as test system: CC(C)[C@H](C)N(CC(N)=O)C(=O)CN(C(=O)CN(CCCCN)C(=O)CN(C(=O)CN(C(=O)CN(CCCCN)C(=O)CN(C(=O)CN(C(=O)CN(CCCCN)C(=O)CN(C(=O)CN(C(=O)CNCCCCN)[C@@H](C)C(C)C)[C@@H](C)C(C)C)[C@@H](C)C(C)C)[C@@H](C)C(C)C)[C@@H](C)C(C)C)[C@@H](C)C(C)C)[C@@H](C)C(C)C [Peptoid 1-Nsdpall, H-(NLys-Nsdp-Nsdp)4-NH2]
Outgoing: 32
